Assay: Half life in dog at 2 mg/kg, iv
Type: ADME, organism-based, Canis lupus familiaris
Design: dose 2 mg/kg, route intravenous
Details: in vivo
readout-type: half-life (h)
# unit: h | format: bare number

Just so you know, measured half-life for CCOc1cc(NC(=O)C2(NC(=O)c3ccc4c(C5CCCC5)c(-c5ncc(Cl)cn5)n(C)c4c3)CCC2)ccc1/C=C/C(=O)O came out at 4.5

* * *

Assay: Plasma concentration in rat at 4 mg/kg, po cassette dosing after 1 hr
Format: ADME, organism-based
Design: dose 4 mg/kg, route oral
Criterion: concentration at 1 h meeting or surpassing 1000 nM. Met: fulfilled. Not met: not fulfilled.

Solved entries:
{"smiles-entry": "CCOc1cc(NC(=O)C2(NC(=O)c3ccc4c(C5CCCC5)c(-c5ccccn5)n(C)c4c3)CCC2)ccc1/C=C/C(=O)O", "answer-label": "not fulfilled"}
{"smiles-entry": "CCOc1cc(NC(=O)C2(NC(=O)c3ccc4c(C5CCCC5)c(-c5ccc(F)cn5)n(C)c4c3)CCC2)ccc1/C=C/C(=O)O", "answer-label": "fulfilled"}
{"smiles-entry": "CCOc1cc(NC(=O)C2(NC(=O)c3ccc4c(C5CCCC5)c(-c5cccc(N)n5)n(C)c4c3)CCC2)ccc1/C=C/C(=O)O", "answer-label": "not fulfilled"}
{"smiles-entry": "CCOc1cc(NC(=O)C2(NC(=O)c3ccc4c(C5CCCC5)c(-c5ccc(Cl)cn5)n(C)c4c3)CCC2)ccc1/C=C/C(=O)O", "answer-label": "not fulfilled"}
{"smiles-entry": "CC(C)Oc1cc(NC(=O)C2(NC(=O)c3ccc4c(C5CCCC5)c(-c5ccccn5)n(C)c4c3)CCC2)ccc1/C=C/C(=O)O", "answer-label": "fulfilled"}

For this compound, is measured concentration at 1 h 1000 nM or higher? CCOc1cc(NC(=O)C2(NC(=O)c3ccc4c(C5CCCC5)c(-c5cnn(C)c5)n(C)c4c3)CCC2)ccc1/C=C/C(=O)O
not fulfilled

For this compound, is measured concentration at 1 h 1000 nM or higher? CCOc1cc(NC(=O)C2(NC(=O)c3ccc4c(C5CCCC5)c(-c5ncc(Cl)cn5)n(C)c4c3)CCC2)ccc1/C=C/C(=O)O
fulfilled

* * *

Listing: log10 concentration at 2 h of selected compounds
Assay: Plasma concentration in rat at 4 mg/kg, po cassette dosing after 2 hrs
Format: ADME, organism-based
Set-up: dose 4 mg/kg, route oral
Please note: log10 values; quantity concentration at 2 h; unit nM.

Below, 3 compounds whose answers are already recorded.
{"smiles-entry": "CCOc1cc(NC(=O)C2(NC(=O)c3ccc4c(C5CCCC5)c(-c5ncc(Cl)cn5)n(C)c4c3)CCC2)ccc1/C=C/C(=O)O", "log10 concentration at 2 h": 3.36}
{"smiles-entry": "CCOc1cc(NC(=O)C2(NC(=O)c3ccc4c(C5CCCC5)c(-c5cccc(N)n5)n(C)c4c3)CCC2)ccc1/C=C/C(=O)O", "log10 concentration at 2 h": 2.00}
{"smiles-entry": "CCCOc1cc(NC(=O)C2(NC(=O)c3ccc4c(C5CCCC5)c(-c5ccccn5)n(C)c4c3)CCC2)ccc1/C=C/C(=O)O", "log10 concentration at 2 h": 2.30}

Just so you know, measured log10 concentration at 2 h for CCOc1cc(NC(=O)C2(NC(=O)c3ccc4c(C5CCCC5)c(-c5cnn(C)c5)n(C)c4c3)CCC2)ccc1/C=C/C(=O)O came out at 2.00

Just so you know, measured log10 concentration at 2 h for CCOc1cc(NC(=O)C2(NC(=O)c3ccc4c(C5CCCC5)c(-c5ncc(Br)cn5)n(C)c4c3)CCC2)ccc1/C=C/C(=O)O came out at 3.32

* * *

Target: Cytochrome P450 2C19 (Homo sapiens)
Sequence (P33261 whole entry): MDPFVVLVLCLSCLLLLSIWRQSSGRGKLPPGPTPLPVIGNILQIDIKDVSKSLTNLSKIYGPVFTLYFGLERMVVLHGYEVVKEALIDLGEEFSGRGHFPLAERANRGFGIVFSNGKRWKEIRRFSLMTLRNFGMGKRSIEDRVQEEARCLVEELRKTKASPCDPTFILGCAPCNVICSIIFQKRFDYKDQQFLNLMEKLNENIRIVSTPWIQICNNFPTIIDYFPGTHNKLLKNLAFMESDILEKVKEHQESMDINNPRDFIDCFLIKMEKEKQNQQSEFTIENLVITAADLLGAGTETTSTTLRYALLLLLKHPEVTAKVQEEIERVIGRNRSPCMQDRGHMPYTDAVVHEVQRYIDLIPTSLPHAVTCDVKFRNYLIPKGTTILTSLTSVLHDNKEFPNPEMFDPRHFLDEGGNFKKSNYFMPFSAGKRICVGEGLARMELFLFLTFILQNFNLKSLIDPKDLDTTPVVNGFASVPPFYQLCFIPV
readout-type: IC50

Record CCOc1cc(NC(=O)C2(NC(=O)c3ccc4c(C5CCCC5)c(-c5ncc(Cl)cn5)n(C)c4c3)CCC2)ccc1/C=C/C(=O)O has Cytochrome P450 2C19 (Homo sapiens) IC50 equal to > 30 µM

* * *

Test: Mean residence time in dog at 10 mg/kg, po
Format: ADME, organism-based, Canis lupus familiaris
Parameters: dose 10 mg/kg, route oral
Settings: in vivo
readout-type: MRT (h)
# unit: h | format: bare number

Just so you know, measured MRT for CCOc1cc(NC(=O)C2(NC(=O)c3ccc4c(C5CCCC5)c(-c5ncc(Cl)cn5)n(C)c4c3)CCC2)ccc1/C=C/C(=O)O came out at 8

* * *

Assay: Volume of distribution at steady state in rat at 2 mg/kg, iv
Assay type: ADME, organism-based
Parameters: dose 2 mg/kg, route intravenous
Settings: in vivo, read-out: Vdss
readout-type: Vd

Below, 2 compounds whose answers are already recorded.
{"smiles-entry": "COCCOc1cc(NC(=O)C2(NC(=O)c3ccc4c(C5CCCC5)c(-c5ncc(Cl)cn5)n(C)c4c3)CCC2)ccc1/C=C/C(=O)O", "result": "0.29 L/kg"}
{"smiles-entry": "CCOc1cc(NC(=O)C2(NC(=O)c3ccc4c(C5CCCC5)c(-c5ncc(Cl)cn5)n(C)c4c3)CCC2)ccc1/C=C/C(=O)O", "result": "0.38 L/kg"}

Now examine the next entry.
Just so you know, measured Vd for CCOc1cc(NC(=O)C2(NC(=O)c3ccc4c(C5CCCC5)c(-c5ccc(F)cn5)n(C)c4c3)CCC2)ccc1/C=C/C(=O)O came out at 0.42 L/kg

* * *

Experiment: Cmax in dog at 10 mg/kg, po
Type: ADME, organism-based, Canis lupus familiaris
Design: dose 10 mg/kg, route oral
Conditions: in vivo
readout-type: Cmax (µM)
# unit: µM | format: bare number

Just so you know, measured Cmax for CCOc1cc(NC(=O)C2(NC(=O)c3ccc4c(C5CCCC5)c(-c5ncc(Cl)cn5)n(C)c4c3)CCC2)ccc1/C=C/C(=O)O came out at 8.1

* * *

Assay: Half life in human liver microsomes
Format: ADME
Would you mind classing the entries by half-life? Ranges: bottom end: < 1 h; midrange: ≥ 1 h and < 2 h; top end: ≥ 2 h

Form: Item = CCOc1cc(NC(=O)C2(NC(=O)c3ccc4c(C5CCCC5)c(-c5cnccn5)n(C)c4c3)CCC2)ccc1/C=C/C(=O)O ; Class = ?
bottom end

Form: Item = CCOc1cc(NC(=O)C2(NC(=O)c3ccc4c(C5CCCC5)c(-c5ncc(Br)cn5)n(C)c4c3)CCC2)ccc1/C=C/C(=O)O ; Class = ?
top end

Form: Item = CCOc1cc(NC(=O)C2(NC(=O)c3ccc4c(C5CCCC5)c(-c5cnn(C)c5)n(C)c4c3)CCC2)ccc1/C=C/C(=O)O ; Class = ?
bottom end

Form: Item = CCOc1cc(NC(=O)C2(NC(=O)c3ccc4c(C5CCCC5)c(-c5ncc(Cl)cn5)n(C)c4c3)CCC2)ccc1/C=C/C(=O)O ; Class = ?
midrange

Form: Item = COc1cc(NC(=O)C2(NC(=O)c3ccc4c(C5CCCC5)c(-c5ccccn5)n(C)c4c3)CCC2)ccc1/C=C/C(=O)O ; Class = ?
midrange

Form: Item = COCCOc1cc(NC(=O)C2(NC(=O)c3ccc4c(C5CCCC5)c(-c5ccccn5)n(C)c4c3)CCC2)ccc1/C=C/C(=O)O ; Class = ?
midrange

Form: Item = CC(C)Oc1cc(NC(=O)C2(NC(=O)c3ccc4c(C5CCCC5)c(-c5ccccn5)n(C)c4c3)CCC2)ccc1/C=C/C(=O)O ; Class = ?
midrange

Form: Item = CCOc1cc(NC(=O)C2(NC(=O)c3ccc4c(C5CCCC5)c(-c5ncc(Cl)cn5)n(C)c4c3)CC2)ccc1/C=C/C(=O)O ; Class = ?
top end

Form: Item = CCCOc1cc(NC(=O)C2(NC(=O)c3ccc4c(C5CCCC5)c(-c5ccccn5)n(C)c4c3)CCC2)ccc1/C=C/C(=O)O ; Class = ?
top end

* * *

Assay: Oral bioavailability in dog at 10 mg/kg
Type: ADME, organism-based, Canis lupus familiaris
Conditions: in vivo
readout-type: bioavailability (%)
# unit: % | format: bare number

Just so you know, measured bioavailability for CCOc1cc(NC(=O)C2(NC(=O)c3ccc4c(C5CCCC5)c(-c5ncc(Cl)cn5)n(C)c4c3)CCC2)ccc1/C=C/C(=O)O came out at 29

* * *

Experiment: Ratio of drug level in rat liver to plasma after 6 hrs
Type: ADME, cell-free
readout-type: Kp at 6 h
Lab note: write the figure by itself, no unit.

Just so you know, measured Kp at 6 h for CCOc1cc(NC(=O)C2(NC(=O)c3ccc4c(C5CCCC5)c(-c5ncc(Cl)cn5)n(C)c4c3)CCC2)ccc1/C=C/C(=O)O came out at 5

* * *

System: Rhesus monkey
Assay: Volume of distribution at steady state in monkey at 2 mg/kg, iv
Assay type: ADME, organism-based, Macaca mulatta
Set-up: dose 2 mg/kg, route intravenous
Details: in vivo
readout-type: Vdss (L/kg)
# unit: L/kg | format: bare number

Just so you know, measured Vdss for CCOc1cc(NC(=O)C2(NC(=O)c3ccc4c(C5CCCC5)c(-c5ncc(Cl)cn5)n(C)c4c3)CCC2)ccc1/C=C/C(=O)O came out at 0.6
